molecular target: albumin (BSA) (Bos taurus, UniProt P02769); assay: Fluorescence intensity before and after change in external environment (addition of 5 wt % BSA); conditions: lactosome containing 20 mol % of dye (IC7-2: 15 mol %); in PBS; at the BSA fluorescence maximum wavelength
Sequence (P02769 25-607): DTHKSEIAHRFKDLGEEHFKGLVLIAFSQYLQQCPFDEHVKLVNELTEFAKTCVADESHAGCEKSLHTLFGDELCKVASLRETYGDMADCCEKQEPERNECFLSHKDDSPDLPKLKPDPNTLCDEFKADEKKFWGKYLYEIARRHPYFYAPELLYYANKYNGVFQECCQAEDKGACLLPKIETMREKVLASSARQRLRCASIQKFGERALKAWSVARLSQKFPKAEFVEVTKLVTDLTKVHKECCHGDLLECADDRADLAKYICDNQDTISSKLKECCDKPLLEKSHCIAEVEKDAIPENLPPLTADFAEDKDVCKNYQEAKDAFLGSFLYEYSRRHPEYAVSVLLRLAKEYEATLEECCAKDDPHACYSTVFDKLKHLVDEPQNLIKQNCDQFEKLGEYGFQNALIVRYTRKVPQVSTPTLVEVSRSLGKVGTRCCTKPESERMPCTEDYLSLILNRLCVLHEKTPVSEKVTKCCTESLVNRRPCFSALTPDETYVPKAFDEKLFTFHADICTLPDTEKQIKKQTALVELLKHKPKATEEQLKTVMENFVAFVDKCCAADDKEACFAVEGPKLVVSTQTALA
Please provide measured Fluorescence intensity (PBS)(B) for the entries that follow.
Answer with a bare number; do not write a unit.

In: # lookup: albumin (BSA) (Bos taurus, UniProt P02769) Fluorescence intensity (PBS)(B), key = CC1(C)C(/C=C/C2=C(Cl)C(=C/C=C3/C=CN(CCO)c4ccccc43)/CCC2)=[N+](CCCCCC(=O)O)c2ccc3ccccc3c21.[I-]
Out: 14147

In: # lookup: albumin (BSA) (Bos taurus, UniProt P02769) Fluorescence intensity (PBS)(B), key = CC1(C)C(/C=C/C2=C(Cl)C(=C/C=C3\N(CCCCCC(=O)O)c4ccc5ccccc5c4C3(C)C)/CCC2)=[N+](CCO)c2ccc3ccccc3c21.[I-]
Out: 591

In: # lookup: albumin (BSA) (Bos taurus, UniProt P02769) Fluorescence intensity (PBS)(B), key = CC1(C)C(/C=C/C=C/C=C/C=C2\N(CCCCS(=O)(=O)O)c3ccc4ccccc4c3C2(C)C)=[N+](CCCCS(=O)(=O)[O-])c2ccc3ccccc3c21
Out: 4454

In: # lookup: albumin (BSA) (Bos taurus, UniProt P02769) Fluorescence intensity (PBS)(B), key = O=C(O)c1ccccc1C1=c2cc3c4c(c2Oc2c1cc1c5c2CCCN5CCC1)CCC[N+]=4CCC3
Out: 163500

In: # lookup: albumin (BSA) (Bos taurus, UniProt P02769) Fluorescence intensity (PBS)(B), key = N#CC1=c2cc3c4c(c2Oc2c1cc1c5c2CCCN5CCC1)CCC[N+]=4CCC3
Out: 82260

###

target: UniProt:P02769; assay: Fluorescence intensity before and after change in external environment (addition of 5 wt % BSA); conditions: lactosome containing 20 mol % of dye (IC7-2: 15 mol %); 5 wt % BSA versus PBS
hey, just use true (1) if measured Ratio of fluorescence intensity (A/B) is less than 10, otherwise false (0)

In: Is the reported Ratio of fluorescence intensity (A/B) for CC1(C)C(/C=C/C=C/C=C/C=C2\N(CCCCS(=O)(=O)O)c3ccc4ccccc4c3C2(C)C)=[N+](CCCCS(=O)(=O)[O-])c2ccc3ccccc3c21 strictly below 10?
Out: false (0)

In: Is the reported Ratio of fluorescence intensity (A/B) for CC1(C)C(/C=C/C2=C(Cl)C(=C/C=C3/C=CN(CCO)c4ccccc43)/CCC2)=[N+](CCCCCC(=O)O)c2ccc3ccccc3c21.[I-] strictly below 10?
Out: false (0)

In: Is the reported Ratio of fluorescence intensity (A/B) for O=C(O)c1ccccc1C1=c2cc3c4c(c2Oc2c1cc1c5c2CCCN5CCC1)CCC[N+]=4CCC3 strictly below 10?
Out: true (1)

In: Is the reported Ratio of fluorescence intensity (A/B) for CC1(C)C(/C=C/C2=C(Cl)C(=C/C=C3\N(CCCCCC(=O)O)c4ccc5ccccc5c4C3(C)C)/CCC2)=[N+](CCO)c2ccc3ccccc3c21.[I-] strictly below 10?
Out: false (0)

In: Is the reported Ratio of fluorescence intensity (A/B) for N#CC1=c2cc3c4c(c2Oc2c1cc1c5c2CCCN5CCC1)CCC[N+]=4CCC3 strictly below 10?
Out: true (1)

###

experiment: Fluorescence intensity before and after change in external environment (addition of plasma); conditions: lactosome containing 20 mol % of dye (IC7-2: 15 mol %); in PBS; at the plasma fluorescence maximum wavelength
hey, just use fulfilled if measured Fluorescence intensity (PBS)(B) is less than 10000, otherwise not fulfilled

In: Is the reported Fluorescence intensity (PBS)(B) for O=C(O)c1ccccc1C1=c2cc3c4c(c2Oc2c1cc1c5c2CCCN5CCC1)CCC[N+]=4CCC3 [Rhodamine 101] strictly below 10000?
Out: not fulfilled

In: Is the reported Fluorescence intensity (PBS)(B) for CC1(C)C(/C=C/C2=C(Cl)C(=C/C=C3/C=CN(CCO)c4ccccc43)/CCC2)=[N+](CCCCCC(=O)O)c2ccc3ccccc3c21.[I-] [IC7-2] strictly below 10000?
Out: not fulfilled

In: Is the reported Fluorescence intensity (PBS)(B) for CC1(C)C(/C=C/C=C/C=C/C=C2\N(CCCCS(=O)(=O)O)c3ccc4ccccc4c3C2(C)C)=[N+](CCCCS(=O)(=O)[O-])c2ccc3ccccc3c21 [ICG, indocyanine green] strictly below 10000?
Out: fulfilled

In: Is the reported Fluorescence intensity (PBS)(B) for N#CC1=c2cc3c4c(c2Oc2c1cc1c5c2CCCN5CCC1)CCC[N+]=4CCC3 [Rhodamine 800] strictly below 10000?
Out: not fulfilled

In: Is the reported Fluorescence intensity (PBS)(B) for CC1(C)C(/C=C/C2=C(Cl)C(=C/C=C3\N(CCCCCC(=O)O)c4ccc5ccccc5c4C3(C)C)/CCC2)=[N+](CCO)c2ccc3ccccc3c21.[I-] [IC7-1] strictly below 10000?
Out: fulfilled

###

test: Fluorescence intensity before and after change in external environment (addition of 5 wt % SDS); conditions: lactosome containing 20 mol % of dye (IC7-2: 15 mol %); addition of 5 wt % SDS; polymer 1/15 mg/mL
Please provide measured Fluorescence maximum for the entries that follow.
Reply numerically in nm, unit not repeated.

In: Tell me Fluorescence maximum reported for CC1(C)C(/C=C/C2=C(Cl)C(=C/C=C3\N(CCCCCC(=O)O)c4ccc5ccccc5c4C3(C)C)/CCC2)=[N+](CCO)c2ccc3ccccc3c21.[I-]
Out: 852

In: Tell me Fluorescence maximum reported for CC1(C)C(/C=C/C2=C(Cl)C(=C/C=C3/C=CN(CCO)c4ccccc43)/CCC2)=[N+](CCCCCC(=O)O)c2ccc3ccccc3c21.[I-]
Out: 916

In: Tell me Fluorescence maximum reported for O=C(O)c1ccccc1C1=c2cc3c4c(c2Oc2c1cc1c5c2CCCN5CCC1)CCC[N+]=4CCC3
Out: 598

In: Tell me Fluorescence maximum reported for CC1(C)C(/C=C/C=C/C=C/C=C2\N(CCCCS(=O)(=O)O)c3ccc4ccccc4c3C2(C)C)=[N+](CCCCS(=O)(=O)[O-])c2ccc3ccccc3c21
Out: 821

In: Tell me Fluorescence maximum reported for N#CC1=c2cc3c4c(c2Oc2c1cc1c5c2CCCN5CCC1)CCC[N+]=4CCC3
Out: 702

###

Please provide measured Fluorescence intensity (A) for the entries that follow.
test: Fluorescence intensity before and after change in external environment (addition of 5 wt % SDS); conditions: lactosome containing 20 mol % of dye (IC7-2: 15 mol %); after addition of 5 wt % SDS
Answer with a bare number; do not write a unit.

In: Tell me Fluorescence intensity (A) reported for CC1(C)C(/C=C/C=C/C=C/C=C2\N(CCCCS(=O)(=O)O)c3ccc4ccccc4c3C2(C)C)=[N+](CCCCS(=O)(=O)[O-])c2ccc3ccccc3c21 [ICG, indocyanine green]
Out: 382900

In: Tell me Fluorescence intensity (A) reported for CC1(C)C(/C=C/C2=C(Cl)C(=C/C=C3/C=CN(CCO)c4ccccc43)/CCC2)=[N+](CCCCCC(=O)O)c2ccc3ccccc3c21.[I-] [IC7-2]
Out: 124942

In: Tell me Fluorescence intensity (A) reported for N#CC1=c2cc3c4c(c2Oc2c1cc1c5c2CCCN5CCC1)CCC[N+]=4CCC3 [Rhodamine 800]
Out: 152580

In: Tell me Fluorescence intensity (A) reported for O=C(O)c1ccccc1C1=c2cc3c4c(c2Oc2c1cc1c5c2CCCN5CCC1)CCC[N+]=4CCC3 [Rhodamine 101]
Out: 249130

In: Tell me Fluorescence intensity (A) reported for CC1(C)C(/C=C/C2=C(Cl)C(=C/C=C3\N(CCCCCC(=O)O)c4ccc5ccccc5c4C3(C)C)/CCC2)=[N+](CCO)c2ccc3ccccc3c21.[I-] [IC7-1]
Out: 141929

###

molecular target: albumin (BSA) (Bos taurus, UniProt P02769); assay: Fluorescence intensity before and after change in external environment (addition of 5 wt % BSA); settings: lactosome containing 20 mol % of dye (IC7-2: 15 mol %); addition of 5 wt % BSA; polymer 1/15 mg/mL
Observation type: Fluorescence maximum (nm)
Reply numerically in nm, unit not repeated.

In: Tell me Fluorescence maximum reported for O=C(O)c1ccccc1C1=c2cc3c4c(c2Oc2c1cc1c5c2CCCN5CCC1)CCC[N+]=4CCC3
Out: 600

In: Tell me Fluorescence maximum reported for CC1(C)C(/C=C/C=C/C=C/C=C2\N(CCCCS(=O)(=O)O)c3ccc4ccccc4c3C2(C)C)=[N+](CCCCS(=O)(=O)[O-])c2ccc3ccccc3c21
Out: 802

In: Tell me Fluorescence maximum reported for CC1(C)C(/C=C/C2=C(Cl)C(=C/C=C3\N(CCCCCC(=O)O)c4ccc5ccccc5c4C3(C)C)/CCC2)=[N+](CCO)c2ccc3ccccc3c21.[I-]
Out: 837

In: Tell me Fluorescence maximum reported for CC1(C)C(/C=C/C2=C(Cl)C(=C/C=C3/C=CN(CCO)c4ccccc43)/CCC2)=[N+](CCCCCC(=O)O)c2ccc3ccccc3c21.[I-]
Out: 903

In: Tell me Fluorescence maximum reported for N#CC1=c2cc3c4c(c2Oc2c1cc1c5c2CCCN5CCC1)CCC[N+]=4CCC3
Out: 699

Data origin: patent US9370589B2
